Origin of measurements: patent US11827628B2

test system: Primary human T-cells; assay: Primary Human T-Cell Proliferation Assay Stimulated with IL-2 (CellTiter-Glo); assay type: cell-based; settings: primary human T-cell proliferation stimulated with IL-2; read-out: IC50, Example 42
QUANTITY_KIND: IC50 (nM)
Write the value in nM as a bare number.

1. NS(=O)(=O)c1cccc(Nc2ncc(F)c(Nc3ccc(OCc4ccccn4)c(Cl)c3)n2)c1 [Compound I-171]    415
2. Cc1cc(Nc2nc(Nc3ccc(S(N)(=O)=O)cc3)ncc2F)cc(C)c1OCC#N [Compound I-25]    1610
3. CNS(=O)(=O)c1cc(Nc2ncc(F)c(Nc3ccc(OCc4cccnc4)cc3)n2)ccc1C [Compound I-190]    242

Turning to the following molecule.
State the recorded IC50 for this entry: Cc1cc(Nc2nc(Nc3cccc(S(N)(=O)=O)c3)ncc2F)cc(C)c1OC(C)C(N)=O (racemic) [Compound I-123] 225
